biological target: human CaSR P39S mutant (Homo sapiens, UniProt P41180, P39S); test: Calcium mobilization assay, CaSR P39S mutant; conditions: mean ± s.e.m., n = 3
Sequence (P41180 20-1078 P39S): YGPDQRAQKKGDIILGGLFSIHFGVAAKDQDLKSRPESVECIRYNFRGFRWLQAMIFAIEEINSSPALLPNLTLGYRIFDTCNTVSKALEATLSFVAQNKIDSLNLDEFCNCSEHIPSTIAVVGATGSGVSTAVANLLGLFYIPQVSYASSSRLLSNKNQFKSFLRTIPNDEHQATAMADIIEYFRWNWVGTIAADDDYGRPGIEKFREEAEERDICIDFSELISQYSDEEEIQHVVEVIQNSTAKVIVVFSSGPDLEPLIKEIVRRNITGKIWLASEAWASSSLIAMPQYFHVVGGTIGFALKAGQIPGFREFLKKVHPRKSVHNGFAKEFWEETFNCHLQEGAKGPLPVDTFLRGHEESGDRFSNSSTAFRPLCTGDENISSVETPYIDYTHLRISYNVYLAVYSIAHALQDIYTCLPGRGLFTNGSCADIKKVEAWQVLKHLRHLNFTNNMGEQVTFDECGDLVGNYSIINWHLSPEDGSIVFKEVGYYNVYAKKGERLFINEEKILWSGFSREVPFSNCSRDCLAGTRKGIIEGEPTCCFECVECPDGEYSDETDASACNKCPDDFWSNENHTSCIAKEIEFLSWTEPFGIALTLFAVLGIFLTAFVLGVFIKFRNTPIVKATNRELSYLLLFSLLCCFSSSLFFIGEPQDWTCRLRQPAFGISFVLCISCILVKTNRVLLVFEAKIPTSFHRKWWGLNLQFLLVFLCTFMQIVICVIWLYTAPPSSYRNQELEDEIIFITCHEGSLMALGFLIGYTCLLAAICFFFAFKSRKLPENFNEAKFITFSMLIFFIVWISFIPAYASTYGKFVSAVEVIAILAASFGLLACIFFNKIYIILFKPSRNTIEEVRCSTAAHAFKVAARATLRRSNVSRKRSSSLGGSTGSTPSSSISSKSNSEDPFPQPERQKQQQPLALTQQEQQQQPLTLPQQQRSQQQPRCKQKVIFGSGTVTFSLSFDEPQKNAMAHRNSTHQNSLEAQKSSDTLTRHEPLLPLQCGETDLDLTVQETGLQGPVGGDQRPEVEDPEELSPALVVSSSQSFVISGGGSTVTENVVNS
observable: pEC50
// field semantics: pEC50 = negative decimal log of concentration (mol/L)

Prompt line: Looking for the measured pEC50 of [Ca+2].[Cl-].[Cl-] , can you help?
Response line: 2.12
